assay comment: Density measurements of test solutions
Type: physicochemical
measurement context: Tap water, 1.00%
property label: Density (at 22 C.) (g/cm³)
// units = g/cm³; emit number, no label

[
  {
    "smiles": "OC[C@H]1O[C@@H]2O[C@H]3[C@H](O)[C@@H](O)[C@@H](O[C@H]4[C@H](O)[C@@H](O)[C@@H](O[C@H]5[C@H](O)[C@@H](O)[C@@H](O[C@H]6[C@H](O)[C@@H](O)[C@@H](O[C@H]7[C@H](O)[C@@H](O)[C@@H](O[C@H]8[C@H](O)[C@@H](O)[C@@H](O[C@H]9[C@H](O)[C@@H](O)[C@@H](O[C@H]1[C@H](O)[C@H]2O)O[C@@H]9CO)O[C@@H]8CO)O[C@@H]7CO)O[C@@H]6CO)O[C@@H]5CO)O[C@@H]4CO)O[C@@H]3CO",
    "Density (at 22 C.) / g/cm³": 1
  }
]

Now for the compound whose Density (at 22 C.) we want.
Ask: Quick one: give measured Density (at 22 C.) for `OC[C@H]1O[C@@H]2O[C@H]3[C@H](O)[C@@H](O)[C@@H](O[C@H]4[C@H](O)[C@@H](O)[C@@H](O[C@H]5[C@H](O)[C@@H](O)[C@@H](O[C@H]6[C@H](O)[C@@H](O)[C@@H](O[C@H]7[C@H](O)[C@@H](O)[C@@H](O[C@H]1[C@H](O)[C@H]2O)O[C@@H]7CO)O[C@@H]6CO)O[C@@H]5CO)O[C@@H]4CO)O[C@@H]3CO`
Result: 1

###

assay comment: Density measurements of test solutions
Assay type: physicochemical
measurement context: Tap water, 0.10%
property label: Density (at 22 C.)

[
  {
    "smiles": "OC[C@H]1O[C@@H]2O[C@H]3[C@H](O)[C@@H](O)[C@@H](O[C@H]4[C@H](O)[C@@H](O)[C@@H](O[C@H]5[C@H](O)[C@@H](O)[C@@H](O[C@H]6[C@H](O)[C@@H](O)[C@@H](O[C@H]7[C@H](O)[C@@H](O)[C@@H](O[C@H]1[C@H](O)[C@H]2O)O[C@@H]7CO)O[C@@H]6CO)O[C@@H]5CO)O[C@@H]4CO)O[C@@H]3CO",
    "readout value": "0.999 g/cm³"
  }
]

Continue with the molecule presented below.
Ask: Provide one value: measured Density (at 22 C.) of `OC[C@H]1O[C@@H]2O[C@H]3[C@H](O)[C@@H](O)[C@@H](O[C@H]4[C@H](O)[C@@H](O)[C@@H](O[C@H]5[C@H](O)[C@@H](O)[C@@H](O[C@H]6[C@H](O)[C@@H](O)[C@@H](O[C@H]7[C@H](O)[C@@H](O)[C@@H](O[C@H]8[C@H](O)[C@@H](O)[C@@H](O[C@H]9[C@H](O)[C@@H](O)[C@@H](O[C@H]1[C@H](O)[C@H]2O)O[C@@H]9CO)O[C@@H]8CO)O[C@@H]7CO)O[C@@H]6CO)O[C@@H]5CO)O[C@@H]4CO)O[C@@H]3CO`
Result: 1 g/cm³

###

Quick list: Density (at 22 C.) per entry.
assay comment: Density measurements of test solutions
Assay type: physicochemical
measurement context: Tap water, 0.05%
State just the number; it will be interpreted in g/cm³.

Ask: Write down Density (at 22 C.) measured for item OC[C@H]1O[C@@H]2O[C@H]3[C@H](O)[C@@H](O)[C@@H](O[C@H]4[C@H](O)[C@@H](O)[C@@H](O[C@H]5[C@H](O)[C@@H](O)[C@@H](O[C@H]6[C@H](O)[C@@H](O)[C@@H](O[C@H]7[C@H](O)[C@@H](O)[C@@H](O[C@H]1[C@H](O)[C@H]2O)O[C@@H]7CO)O[C@@H]6CO)O[C@@H]5CO)O[C@@H]4CO)O[C@@H]3CO [Alpha Cyclodextrin, α-cyclodextrin]
Result: 0.999

Ask: Annotate the molecule OC[C@H]1O[C@@H]2O[C@H]3[C@H](O)[C@@H](O)[C@@H](O[C@H]4[C@H](O)[C@@H](O)[C@@H](O[C@H]5[C@H](O)[C@@H](O)[C@@H](O[C@H]6[C@H](O)[C@@H](O)[C@@H](O[C@H]7[C@H](O)[C@@H](O)[C@@H](O[C@H]8[C@H](O)[C@@H](O)[C@@H](O[C@H]9[C@H](O)[C@@H](O)[C@@H](O[C@H]1[C@H](O)[C@H]2O)O[C@@H]9CO)O[C@@H]8CO)O[C@@H]7CO)O[C@@H]6CO)O[C@@H]5CO)O[C@@H]4CO)O[C@@H]3CO [Gamma Cyclodextrin, γ-cyclodextrin] with its measured Density (at 22 C.).
Result: 1
